Listed compounds paired with reported solubility kinetic at 24 h, 250 µM
# assayComment: Aqueous kinetic solubility in PBS at 250 uM incubated for 24 hrs […]
# Assay type: physicochemical
# testParameters: read-out: Kinetic_solubility

chemSmiles	solubility kinetic at 24 h, 250 µM [µM]
COc1ccc2c3c1O[C@H]1C[C@@H](O)C=C[C@@]31CCN(CC#CCNC13CC4CC(C)(CC(C)(C4)C1)C3)C2	230
COc1ccc2c3c1O[C@H]1C[C@@H](O)C=C[C@@]31CCN(C/C=C/CNC13CC4CC(C)(CC(C)(C4)C1)C3)C2	237
COc1ccc2c3c1O[C@H]1C[C@@H](O)C=C[C@@]31CCN(CCCCNC13CC4CC(C)(CC(C)(C4)C1)C3)C2	242

----------
# assayComment: AUC in CD-1 mouse at 3 mg/kg, iv measured for 240 mins
# Assay type: ADME, organism-based
# testParameters: in vivo
Reported AUC at 4 h by item:

chemSmiles	valueUnits	AUC at 4 h
COc1ccc2c3c1O[C@H]1C[C@@H](O)C=C[C@@]31CCN(C/C=C/CNC13CC4CC(C)(CC(C)(C4)C1)C3)C2	ng·h/mL	280
COc1ccc2c3c1O[C@H]1C[C@@H](O)C=C[C@@]31CCN(CCCCNC13CC4CC(C)(CC(C)(C4)C1)C3)C2	ng·h/mL	290

----------
# assayComment: Tmax in CD-1 mouse at 3 mg/kg, iv measured for 240 mins
# Assay type: ADME, organism-based
# testParameters: in vivo
Recorded Tmax for the following compounds
measurementName: Tmax

chemSmiles	measured
COc1ccc2c3c1O[C@H]1C[C@@H](O)C=C[C@@]31CCN(C/C=C/CNC13CC4CC(C)(CC(C)(C4)C1)C3)C2	5 min
COc1ccc2c3c1O[C@H]1C[C@@H](O)C=C[C@@]31CCN(CCCCNC13CC4CC(C)(CC(C)(C4)C1)C3)C2	5 min

----------
# Cmax per entry
# assayComment: Cmax in CD-1 mouse at 3 mg/kg, iv measured for 240 mins
# Format: ADME, organism-based
# testParameters: in vivo
measurementName: Cmax (ng/mL)

chemSmiles	measured
COc1ccc2c3c1O[C@H]1C[C@@H](O)C=C[C@@]31CCN(C/C=C/CNC13CC4CC(C)(CC(C)(C4)C1)C3)C2	202
COc1ccc2c3c1O[C@H]1C[C@@H](O)C=C[C@@]31CCN(CCCCNC13CC4CC(C)(CC(C)(C4)C1)C3)C2	208

----------
# assayComment: Metabolic stability in mouse plasma assessed as half life at 2 uM incubated for 2 hrs by LC-MS/MS analysis
# Assay type: ADME, cell-free
measurementName: half-life at 2 µM

chemSmiles	measured
COc1ccc2c3c1O[C@H]1C[C@@H](O)C=C[C@@]31CCN(CCCCNC13CC4CC(C)(CC(C)(C4)C1)C3)C2	1.62 h
COc1ccc2c3c1O[C@H]1C[C@@H](O)C=C[C@@]31CCN(CC#CCNC13CC4CC(C)(CC(C)(C4)C1)C3)C2	> 2 h
COc1ccc2c3c1O[C@H]1C[C@@H](O)C=C[C@@]31CCN(C/C=C/CNC13CC4CC(C)(CC(C)(C4)C1)C3)C2	> 2 h

----------
Overview of recorded IC50 for various compounds
# systemUnderTest: Acetylcholinesterase (Homo sapiens)
# Sequence (P22303 whole entry): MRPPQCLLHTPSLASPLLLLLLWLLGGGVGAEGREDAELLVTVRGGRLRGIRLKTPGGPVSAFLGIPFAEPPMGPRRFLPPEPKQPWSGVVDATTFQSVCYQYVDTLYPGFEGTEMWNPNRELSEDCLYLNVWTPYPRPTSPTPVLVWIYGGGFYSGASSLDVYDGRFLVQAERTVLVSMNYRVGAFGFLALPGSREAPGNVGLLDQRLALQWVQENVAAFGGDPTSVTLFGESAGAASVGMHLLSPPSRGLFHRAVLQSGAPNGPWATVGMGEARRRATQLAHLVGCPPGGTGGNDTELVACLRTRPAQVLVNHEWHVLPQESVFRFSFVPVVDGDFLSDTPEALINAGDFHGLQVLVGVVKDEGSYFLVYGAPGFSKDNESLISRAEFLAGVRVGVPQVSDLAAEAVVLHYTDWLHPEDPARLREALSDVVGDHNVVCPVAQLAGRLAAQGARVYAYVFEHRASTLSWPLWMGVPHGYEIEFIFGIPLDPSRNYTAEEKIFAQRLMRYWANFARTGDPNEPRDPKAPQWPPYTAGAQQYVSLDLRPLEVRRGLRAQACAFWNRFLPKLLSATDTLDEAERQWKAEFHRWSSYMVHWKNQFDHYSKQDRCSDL
# assayComment: Inhibition of recombinant human AChE using acetylthiocholine as substrate preincubated for 20 mins followed by substrate addition measured for 3 mins by Ellman's method
measurementName: IC50 (nM)

chemSmiles	measured
COc1ccc2c3c1O[C@H]1C[C@@H](O)C=C[C@@]31CCN(C/C=C/CNC13CC4CC(C)(CC(C)(C4)C1)C3)C2	115
COc1ccc2c3c1O[C@H]1C[C@@H](O)C=C[C@@]31CCN(CC#CCNC13CC4CC(C)(CC(C)(C4)C1)C3)C2	762
COc1ccc2c3c1O[C@H]1C[C@@H](O)C=C[C@@]31CCN(CCCCNC13CC4CC(C)(CC(C)(C4)C1)C3)C2	1130

----------
# assayComment: Drug concentration in brain of in CD-1 mouse at 3 mg/kg, iv measured for 240 mins
# Format: ADME, organism-based
# testParameters: read-out: Ct
measurementName: concentration at 4 h (ng/g)

chemSmiles	measured
COc1ccc2c3c1O[C@H]1C[C@@H](O)C=C[C@@]31CCN(CCCCNC13CC4CC(C)(CC(C)(C4)C1)C3)C2	310
COc1ccc2c3c1O[C@H]1C[C@@H](O)C=C[C@@]31CCN(C/C=C/CNC13CC4CC(C)(CC(C)(C4)C1)C3)C2	96

----------
# assayComment: Clearance in CD-1 mouse at 3 mg/kg, iv measured for 240 mins
# Assay type: ADME, organism-based
# testParameters: in vivo
clearance by entry:

chemSmiles	clearance [mL/min/kg]
COc1ccc2c3c1O[C@H]1C[C@@H](O)C=C[C@@]31CCN(CCCCNC13CC4CC(C)(CC(C)(C4)C1)C3)C2	43
COc1ccc2c3c1O[C@H]1C[C@@H](O)C=C[C@@]31CCN(C/C=C/CNC13CC4CC(C)(CC(C)(C4)C1)C3)C2	161

----------
# systemUnderTest: Glutamate NMDA receptor; Grin1/Grin2a (Rattus norvegicus, UniProt P35439+Q00959)
# Sequence (Q00959 whole entry, other chains not shown): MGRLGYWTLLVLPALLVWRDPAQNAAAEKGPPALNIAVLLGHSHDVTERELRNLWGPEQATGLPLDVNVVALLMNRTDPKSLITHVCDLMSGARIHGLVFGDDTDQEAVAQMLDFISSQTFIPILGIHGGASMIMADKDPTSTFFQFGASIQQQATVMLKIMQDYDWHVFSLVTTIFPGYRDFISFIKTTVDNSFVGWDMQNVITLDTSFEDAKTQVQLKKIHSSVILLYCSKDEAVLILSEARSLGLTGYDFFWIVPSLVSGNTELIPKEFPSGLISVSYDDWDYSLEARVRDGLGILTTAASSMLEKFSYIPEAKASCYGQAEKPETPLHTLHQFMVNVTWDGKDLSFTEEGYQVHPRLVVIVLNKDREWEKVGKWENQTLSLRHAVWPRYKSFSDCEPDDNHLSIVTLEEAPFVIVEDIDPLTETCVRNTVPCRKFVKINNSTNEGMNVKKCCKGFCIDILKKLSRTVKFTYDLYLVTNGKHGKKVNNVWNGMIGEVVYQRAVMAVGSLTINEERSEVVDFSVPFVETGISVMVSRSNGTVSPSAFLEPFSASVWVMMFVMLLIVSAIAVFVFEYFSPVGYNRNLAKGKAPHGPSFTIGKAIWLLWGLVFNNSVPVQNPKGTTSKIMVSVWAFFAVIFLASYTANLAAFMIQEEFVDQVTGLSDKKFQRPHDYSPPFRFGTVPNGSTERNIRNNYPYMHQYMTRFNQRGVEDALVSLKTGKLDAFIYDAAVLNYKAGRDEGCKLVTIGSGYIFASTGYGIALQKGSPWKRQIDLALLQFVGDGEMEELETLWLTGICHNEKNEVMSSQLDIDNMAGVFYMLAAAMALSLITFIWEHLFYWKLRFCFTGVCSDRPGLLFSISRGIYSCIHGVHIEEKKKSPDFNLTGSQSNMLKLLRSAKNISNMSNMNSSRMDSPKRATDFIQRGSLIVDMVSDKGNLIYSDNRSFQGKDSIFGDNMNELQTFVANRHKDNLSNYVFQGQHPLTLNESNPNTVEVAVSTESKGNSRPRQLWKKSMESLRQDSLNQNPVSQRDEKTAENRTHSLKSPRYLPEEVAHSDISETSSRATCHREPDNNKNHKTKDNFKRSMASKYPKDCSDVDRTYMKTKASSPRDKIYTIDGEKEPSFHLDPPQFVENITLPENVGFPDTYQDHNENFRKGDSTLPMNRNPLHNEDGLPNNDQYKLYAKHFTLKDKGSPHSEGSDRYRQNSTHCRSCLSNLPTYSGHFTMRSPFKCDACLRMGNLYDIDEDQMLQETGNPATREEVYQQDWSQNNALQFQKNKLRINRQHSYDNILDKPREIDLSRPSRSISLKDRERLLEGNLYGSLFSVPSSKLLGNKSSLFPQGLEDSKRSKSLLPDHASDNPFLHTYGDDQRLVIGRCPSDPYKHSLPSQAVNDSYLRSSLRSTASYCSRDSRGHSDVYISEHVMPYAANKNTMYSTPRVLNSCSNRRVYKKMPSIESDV
# assayComment: Inhibition of NMDA/glycine-activated rat GluN1/Glu2A expressed in xenopus laevis oocytes at -75 mV holding potential by voltage clamp method
measurementName: IC50 (µM)

chemSmiles	valueUnits	measured
COc1ccc2c3c1O[C@H]1C[C@@H](O)C=C[C@@]31CCN(CCCCNC13CC4CC(C)(CC(C)(C4)C1)C3)C2	µM	5.74
COc1ccc2c3c1O[C@H]1C[C@@H](O)C=C[C@@]31CCN(CC#CCNC13CC4CC(C)(CC(C)(C4)C1)C3)C2	µM	11.6
COc1ccc2c3c1O[C@H]1C[C@@H](O)C=C[C@@]31CCN(C/C=C/CNC13CC4CC(C)(CC(C)(C4)C1)C3)C2	µM	14.5

----------
Overview of recorded concentration at 1 h for various molecules
# assayComment: Drug concentration in brain of in CD-1 mouse at 3 mg/kg, iv measured for 60 mins
# Assay type: ADME, organism-based
# testParameters: read-out: Ct

chemSmiles	concentration at 1 h, ng/g
COc1ccc2c3c1O[C@H]1C[C@@H](O)C=C[C@@]31CCN(C/C=C/CNC13CC4CC(C)(CC(C)(C4)C1)C3)C2	256
COc1ccc2c3c1O[C@H]1C[C@@H](O)C=C[C@@]31CCN(CCCCNC13CC4CC(C)(CC(C)(C4)C1)C3)C2	115

----------
Listed here are molecules together with their documented half-life at 5 µM.
# assayComment: Metabolic stability in mouse liver microsomes assessed as half life at 5 uM preincubated for 15 mins followed by NADPH/G6P/G6PDH measured for 1 hr by LC-MS/MS analysis
# Type: ADME, Microsome
# testParameters: time 75 min
measurementName: half-life at 5 µM

chemSmiles	measured
COc1ccc2c3c1O[C@H]1C[C@@H](O)C=C[C@@]31CCN(C/C=C/CNC13CC4CC(C)(CC(C)(C4)C1)C3)C2	45 min
COc1ccc2c3c1O[C@H]1C[C@@H](O)C=C[C@@]31CCN(CCCCNC13CC4CC(C)(CC(C)(C4)C1)C3)C2	> 60 min
COc1ccc2c3c1O[C@H]1C[C@@H](O)C=C[C@@]31CCN(CC#CCNC13CC4CC(C)(CC(C)(C4)C1)C3)C2	< 5 min

----------
Known concentration at 0.5 h of a selection of compounds
# assayComment: Drug concentration in brain of in CD-1 mouse at 3 mg/kg, iv measured for 30 mins
# Format: ADME, organism-based
# testParameters: read-out: Ct
measurementName: concentration at 0.5 h

chemSmiles	measured
COc1ccc2c3c1O[C@H]1C[C@@H](O)C=C[C@@]31CCN(C/C=C/CNC13CC4CC(C)(CC(C)(C4)C1)C3)C2	281 ng/g
COc1ccc2c3c1O[C@H]1C[C@@H](O)C=C[C@@]31CCN(CCCCNC13CC4CC(C)(CC(C)(C4)C1)C3)C2	95 ng/g

----------
# assayComment: Drug concentration in brain of in CD-1 mouse at 3 mg/kg, iv measured for 120 mins
# Type: ADME, organism-based
# testParameters: read-out: Ct
# key: entry, value: concentration at 2 h

chemSmiles	concentration at 2 h
COc1ccc2c3c1O[C@H]1C[C@@H](O)C=C[C@@]31CCN(CCCCNC13CC4CC(C)(CC(C)(C4)C1)C3)C2	70 ng/g
COc1ccc2c3c1O[C@H]1C[C@@H](O)C=C[C@@]31CCN(C/C=C/CNC13CC4CC(C)(CC(C)(C4)C1)C3)C2	243 ng/g
